All values here come from patent US20170355757A1.

- Target Under Test: T1, monkey C5-mmh (monkey, UniProt P01031 19-1676 (human entry), limits assumed)
- T1 construct: Expressed with a C-terminal myc-myc-hexahistidine tag
- T1 chain: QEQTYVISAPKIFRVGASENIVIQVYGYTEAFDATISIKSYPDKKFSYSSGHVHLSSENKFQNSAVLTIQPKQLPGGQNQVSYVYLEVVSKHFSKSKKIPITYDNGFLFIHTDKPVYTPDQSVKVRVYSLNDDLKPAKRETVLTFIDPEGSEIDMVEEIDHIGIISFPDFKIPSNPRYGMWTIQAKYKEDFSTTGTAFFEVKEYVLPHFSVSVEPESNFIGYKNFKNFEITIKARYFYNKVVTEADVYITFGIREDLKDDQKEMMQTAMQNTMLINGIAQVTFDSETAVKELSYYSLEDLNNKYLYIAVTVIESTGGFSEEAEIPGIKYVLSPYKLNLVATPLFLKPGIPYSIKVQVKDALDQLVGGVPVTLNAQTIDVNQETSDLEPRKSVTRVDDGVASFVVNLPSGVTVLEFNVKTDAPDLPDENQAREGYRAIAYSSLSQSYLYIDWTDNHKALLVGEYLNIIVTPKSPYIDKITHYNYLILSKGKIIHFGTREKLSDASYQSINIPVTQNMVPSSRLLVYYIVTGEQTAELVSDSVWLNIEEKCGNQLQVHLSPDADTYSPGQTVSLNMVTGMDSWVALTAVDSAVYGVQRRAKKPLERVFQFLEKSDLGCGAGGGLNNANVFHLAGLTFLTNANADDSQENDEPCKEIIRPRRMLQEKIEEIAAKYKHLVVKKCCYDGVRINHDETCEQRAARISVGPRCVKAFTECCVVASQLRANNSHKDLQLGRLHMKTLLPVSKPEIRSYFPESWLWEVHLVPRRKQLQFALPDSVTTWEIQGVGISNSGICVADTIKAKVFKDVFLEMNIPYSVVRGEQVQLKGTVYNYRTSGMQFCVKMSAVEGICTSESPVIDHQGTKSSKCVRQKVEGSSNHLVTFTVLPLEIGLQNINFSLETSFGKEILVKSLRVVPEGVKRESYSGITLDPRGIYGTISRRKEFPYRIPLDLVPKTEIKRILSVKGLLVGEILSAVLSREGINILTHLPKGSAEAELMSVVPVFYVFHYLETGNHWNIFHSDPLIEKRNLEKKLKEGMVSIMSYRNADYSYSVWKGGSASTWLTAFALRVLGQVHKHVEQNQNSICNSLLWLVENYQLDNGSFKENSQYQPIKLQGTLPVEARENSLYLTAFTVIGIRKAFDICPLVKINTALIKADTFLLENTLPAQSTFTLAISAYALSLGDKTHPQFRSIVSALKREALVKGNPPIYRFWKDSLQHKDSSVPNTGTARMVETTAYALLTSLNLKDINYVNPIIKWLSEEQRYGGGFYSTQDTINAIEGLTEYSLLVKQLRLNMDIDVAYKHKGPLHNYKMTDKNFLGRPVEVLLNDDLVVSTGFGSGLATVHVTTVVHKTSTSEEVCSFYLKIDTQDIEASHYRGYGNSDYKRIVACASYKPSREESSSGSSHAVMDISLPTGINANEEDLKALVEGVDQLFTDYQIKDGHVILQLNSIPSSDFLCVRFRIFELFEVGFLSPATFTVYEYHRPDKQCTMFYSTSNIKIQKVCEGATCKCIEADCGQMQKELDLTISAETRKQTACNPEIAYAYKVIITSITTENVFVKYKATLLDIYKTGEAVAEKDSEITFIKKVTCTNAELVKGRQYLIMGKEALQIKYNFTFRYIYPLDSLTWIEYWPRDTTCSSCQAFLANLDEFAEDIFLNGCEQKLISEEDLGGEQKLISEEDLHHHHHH
- Experiment Description: SPR, mAb captured by anti-hFc, 25C
pKd: −log10 of the molar value.
Here, each record is paired with measured pKd data.
Quantity Kind: pKd

Binder | Measured Value
H4H12168P (antibody, human IgG4, V domains shown) VH: QVQLVESGGGVVQPGGSLRLSCAASGFTFGGHAMHWVRQAPGKGLEWLAVISSDGSNKQYADSVKGRFTISRDNPKNTLYLQMNSLRVGDTAIYYCAKEVAPRYYYYGLDVWGQGTTVTVSS VL: DIQMTQSPSSLSASVGDRVTITCRASQDISNFLAWYQQKPGKVPKLLIYTASTLQSGVPSRFSGSGSGTDFTLTVSSLQPEDVATYYCQKYAGALTFGPGTKVDIK | 9.18
H4H12166P8 (antibody, human IgG4, V domains shown, human IgG4 Fc with S108P hinge mutation) VH: QVQLQESGPGLVKPSETLSLTCTVSGDSVSSSYWTWIRQPPGKGLEWIGYIYYSGSSNYNPSLKSRATISVDTSKNQFSLKLSSVTAADTAVYYCAREGNVDHTMIFDYWGQGTLVTVSS VL: AIQMTQSPSSLSASVGDRVTITCRASQGIRNDLGWYQQKPGKAPKLLIYAASSLQSGVPSRFAGRGSGTDFTLTISSLQPEDFATYYCHQDFNYPWTFGQGTKVEIK | 7.67
H4H12159P (antibody, human IgG4, V domains shown) VH: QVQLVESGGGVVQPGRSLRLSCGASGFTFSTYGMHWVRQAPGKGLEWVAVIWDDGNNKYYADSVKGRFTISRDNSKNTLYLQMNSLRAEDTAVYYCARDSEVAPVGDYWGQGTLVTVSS VL: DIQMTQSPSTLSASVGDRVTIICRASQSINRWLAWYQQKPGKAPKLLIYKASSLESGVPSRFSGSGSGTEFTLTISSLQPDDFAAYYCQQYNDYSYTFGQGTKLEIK | 9.88
